The reader will find reported melting point values listed item by item below.

Example entries and their recorded answers appear below.
[
  {
    "compound": "CS(=O)c1cc(Br)nc(Br)c1 (stereo not given)",
    "result": "98 to 100 °C"
  },
  {
    "compound": "O=C(OCc1ccccc1)N1CCC(O)(Cn2nc(-c3c(-c4ccccc4)nn4ccccc34)ccc2=O)CC1",
    "result": "176 to 177 °C"
  },
  {
    "compound": "N#Cc1cnc2c(=O)c3ccccc3oc2c1",
    "result": "220 to 226 °C"
  },
  {
    "compound": "CN(C)C(=O)CC1CN=C(c2cc3cc(Oc4ccc(S(C)(=O)=O)nc4)ccc3[nH]2)S1 (stereo not given)",
    "result": "190 to 191 °C"
  },
  {
    "compound": "Oc1ccc2c(c1)COc1cc3cc(O)ccc3cc1-2",
    "result": "231 to 233 °C"
  }
]

Form field melting point, entry CC(NC(=S)NCc1ccc(C(C)(C)C)cc1)c1ccc(NS(C)(=O)=O)cc1 (stereo not given) : 101 °C

Form field melting point, entry CC(C)(C)c1cccc(S(=O)(=O)n2c(Cc3ccc(C4=NOC(=O)C4)cc3)cc3cc(C(F)(F)F)ccc32)c1 : 70 °C

* * *

The reader will find reported melting point values listed item by item below.

[
  {
    "compound": "CCOC(=O)CCc1cn(CCc2ccc(OCc3nc(-c4ccccc4)oc3C)cc2)nc1-c1ccccc1",
    "melting point": "81 to 82 °C"
  },
  {
    "compound": "Cc1cccc(C)c1NC(=O)CCSc1cc(C(C)(C)C)c(O)c(C(C)(C)C)c1",
    "melting point": "142 to 144 °C"
  },
  {
    "compound": "CCOC(=O)C[C@H]1O[C@H](c2cccc(OC)c2OC)c2cc(Cl)ccc2N(CC(C)(C)CO)C1=O",
    "melting point": "188 to 190 °C"
  },
  {
    "compound": "Cc1cccc(N2CCN(CCCCNC(=O)c3cc4ccccc4o3)CC2)c1",
    "melting point": "119 to 120 °C"
  },
  {
    "compound": "CC(C)c1ccc2c(c1)OC(C(F)(F)F)C(C(=O)O)=C2 (centres undefined)",
    "melting point": "158 to 160 °C"
  }
]

Field: next compound
Form field melting point, entry CC(=O)N[C@@H](C)COC1CCN(c2nc3ccc(OCC4CC4)cc3o2)CC1 : 120 °C

* * *

The reader will find reported melting point values listed item by item below.

Example entries and their recorded answers appear below.
[
  {
    "compound": "OCC[C@@H]1CCCC[C@@H]1c1ccccc1 (relative stereo)",
    "melting point": "48 to 50 °C"
  },
  {
    "compound": "Cc1cc(F)ccc1C(=O)c1ccc(F)cc1C",
    "melting point": "50 to 52 °C"
  },
  {
    "compound": "CN1CCCC2(CCn3c(c(C4=C(c5cn(C)c6ccccc56)C(=O)NC4=O)c4ccccc43)C2)C1 (stereo not given)",
    "melting point": "144 to 146 °C"
  },
  {
    "compound": "CC(=O)c1ccc(OCCc2nc(-c3ccccc3)oc2C)cc1",
    "melting point": "70 to 71 °C"
  },
  {
    "compound": "O=C1CCC(N2Cc3c(OCc4ccc(CN5CCC(c6cccnc6)CC5)cc4)cccc3C2=O)C(=O)N1 (stereo not given)",
    "melting point": "161 to 163 °C"
  },
  {
    "compound": "COC(=O)CCCOc1cccc(CNC(=O)C2Cc3ccccc3N2S(=O)(=O)c2ccc(-c3cccc(C(F)(F)F)c3)cc2)c1 (stereo not given)",
    "melting point": "50 °C"
  },
  {
    "compound": "O=C(NCCc1cccc2ccc(OC3C=CCCC3)cc12)C1CCC1 (stereo not given)",
    "melting point": "104 to 106 °C"
  },
  {
    "compound": "COC(=O)c1sccc1S(=O)(=O)NC(=O)Nc1nc(C)cc(OC)n1",
    "melting point": "165 to 173 °C"
  }
]

Form field melting point, entry CCOC(=S)SC(=CC(=O)c1cc(Cl)c(C)c(Cl)c1)C(=O)O : 126 to 128 °C

Form field melting point, entry COCc1ncnc(Cl)c1C : 37 to 38 °C

Form field melting point, entry CCCCNC(=O)NS(=O)(=O)c1cc(C(F)(F)F)ccc1S(=O)(=O)N(C)C : 128 to 130 °C

* * *

The reader will find reported melting point values listed item by item below.

Example entries and their recorded answers appear below.
[
  {
    "molecule": "C=CCN(CC=C)c1ccc(C=Cc2ccc(S(C)(=O)=O)cc2)cc1",
    "melting point": "101 to 102 °C"
  },
  {
    "molecule": "COc1cc(OC)c(SC(C)(C)CC(=O)O)c(OC)c1",
    "melting point": "103 to 105 °C"
  }
]

Form field melting point, entry Cc1ccc(CC2CCN(C(=O)c3nc4ccc(O)cc4[nH]3)CC2)cc1 : 93 °C

Form field melting point, entry CCNC(=O)c1ncn2c1CN=C(c1ccccc1Br)c1cc(F)ccc1-2 : 218 to 220 °C

Form field melting point, entry CCOC(=S)C(CC(=O)c1ccc(Oc2ccccc2)cc1)C(=O)CC (stereo not given) : 55 to 57 °C

* * *

metric.name: melting point

Form field melting point, entry CC(=O)OC1CSC(Oc2cccc(-c3ccnc(F)c3)c2)C(OC(C)=O)C1OC(C)=O (stereo unspecified) : 117 °C

Form field melting point, entry Cc1c2c(c(C#N)c(=O)n1C)-c1ccccc1C2=O : 271 to 274 °C

Form field melting point, entry CCOC(=O)c1sc(Cl)nc1-c1ccc(Cl)cc1 : 119 to 120 °C

Form field melting point, entry CCC(CC)c1ccc(N(Cc2ccc(-c3csc(COc4cncc(C(=O)O)c4)n3)cc2)C(C)C)cc1 : 202 °C

* * *

The reader will find reported melting point values listed item by item below.

[
  {
    "molecule": "CCOC(=O)NC(C(=O)NN(Cc1ccc(-c2nccs2)cc1)CC(O)C(Cc1ccccc1)NC(=O)C(NC(=O)OC)C(C)CC)C(C)C (stereo unspecified)",
    "melting point": "209 to 211 °C"
  },
  {
    "molecule": "CC1(C)OC(=O)C(Oc2cccc(F)c2)=C1c1ccc(S(C)(=O)=O)cc1",
    "melting point": "136 to 138 °C"
  },
  {
    "molecule": "O=C(Cc1cccc2ccccc12)Nc1cc([C@H]2C[C@@H](NC(=O)CC3CC3)C2)[nH]n1",
    "melting point": "93.2 °C"
  },
  {
    "molecule": "CN1C(=O)Nc2ccccc2C12NC(=O)NC2=O (stereo unspecified)",
    "melting point": "> 280 °C"
  },
  {
    "molecule": "O=C(O)Cc1c(C(=O)c2ccccc2)[nH]c2cc(Cl)cc(Cl)c12",
    "melting point": "214 to 218 °C"
  },
  {
    "molecule": "Cc1ccc(C(=O)c2ccc(CC(=O)O)n2C)c(Cl)c1",
    "melting point": "176 to 178 °C"
  },
  {
    "molecule": "CCOC(=O)c1cnoc1-c1ccc(C)cc1",
    "melting point": "42 to 44 °C"
  },
  {
    "molecule": "CCN1NN(N)N=C1C",
    "melting point": "45 to 50 °C"
  },
  {
    "molecule": "CCn1c2cc(C)ccc2c2c3ccccc3ccc21",
    "melting point": "123 to 124 °C"
  },
  {
    "molecule": "O=Cc1cn(-c2cccnc2)nc1-c1ccc([N+](=O)[O-])o1",
    "melting point": "237 to 238 °C"
  }
]

Form field melting point, entry COC(=O)NNC(=S)Cc1ccc2ccccc2c1 : 129 to 131 °C

Form field melting point, entry CCCCCCCCCCCCc1cc(NC(=O)Nc2c(C(C)C)cccc2C(C)C)on1 : 112 to 114 °C

* * *

The reader will find reported melting point values listed item by item below.

[
  {
    "molecule": "CCn1nc(Cc2c(Cl)cncc2Cl)c2ccc(OC)cc2c1=O",
    "melting point": "150 to 151 °C"
  },
  {
    "molecule": "COC(=O)C1=C(OS(=O)(=O)c2ccc([N+](=O)[O-])cc2)C(=O)O[C@@H]1C",
    "melting point": "123 to 124 °C"
  },
  {
    "molecule": "CN1C(=O)C(c2ccc(OC(F)F)cc2)(c2ccc(F)c(CCCC#N)c2)N=C1N (stereo unspecified)",
    "melting point": "65 to 70 °C"
  },
  {
    "molecule": "COc1ccnc(CO)c1Cl",
    "melting point": "103 to 105 °C"
  },
  {
    "molecule": "CSc1ccc(CC#N)cc1",
    "melting point": "44 to 45 °C"
  }
]

Field: next molecule
Form field melting point, entry O=C(O)C=C1SC(=NCCc2ccccc2)N(CCc2ccccc2)C1=O : 148 to 149 °C
